# measured-on: T1, human PVRIG expressed on cells (human, UniProt Q6DKI7 41-326)
# T1 sequence (looked up): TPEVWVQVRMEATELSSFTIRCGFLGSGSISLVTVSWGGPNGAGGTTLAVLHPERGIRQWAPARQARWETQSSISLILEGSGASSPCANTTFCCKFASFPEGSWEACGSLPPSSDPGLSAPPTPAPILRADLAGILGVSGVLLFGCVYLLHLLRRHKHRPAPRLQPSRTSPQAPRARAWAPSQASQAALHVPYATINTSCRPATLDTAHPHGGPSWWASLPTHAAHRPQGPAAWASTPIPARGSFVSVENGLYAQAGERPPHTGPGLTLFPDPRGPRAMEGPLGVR
# test: cell-based or functional assay
result-type: NK92 killing of K562, killing activity (%), 20 nM antibody
# value in %; strip the unit string

# count of solved cases: 2
humanized anti-PVRIG antibody 39H2 (antibody, human IgG4 S228P, F234A L235A, V domains shown) VH: EVQLVESGGGLVQPGGSLRLSCAASGFTSRTDCMGWFRQAPGKGLEGVAHIDSDGIPRYVESVKGRFTISRDNAKNSLYLQMNSLRAEDTAVYYCVVGFKFGDYCAPNDWGQGTMVTVSS	18.7
anti-PVRIG antibody 39 (antibody, human IgG4 S228P, F234A L235A, V domains shown, no light chain) VH: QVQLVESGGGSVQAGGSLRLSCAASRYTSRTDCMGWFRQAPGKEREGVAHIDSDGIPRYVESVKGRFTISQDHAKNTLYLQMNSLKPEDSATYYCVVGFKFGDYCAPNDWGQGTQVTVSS	22.7

Query :: I'd like to know its NK92 killing of K562, killing activity (%), 20 nM antibody. The binder in question is anti-PVRIG antibody 151 (antibody, human IgG4 S228P, F234A L235A, V domains shown, no light chain) VH: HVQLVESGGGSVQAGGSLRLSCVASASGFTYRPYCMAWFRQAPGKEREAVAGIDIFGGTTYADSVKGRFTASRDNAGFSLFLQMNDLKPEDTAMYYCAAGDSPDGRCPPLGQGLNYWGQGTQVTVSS
Result :: 22.9

Query :: Please do the same for humanized anti-PVRIG antibody 151H7 (antibody, human IgG4 S228P, F234A L235A, V domains shown) VH: HVQLVESGGGLVQPGGSLRLSCVASASGFTYRPYCMAWFRQAPGKEREAVAGIDIFGGTTYADSVKGRFTASRDNAGFSLYLQMNSLRAEDTAVYYCAAGDSPDGRCPPLGQGLNYWGQGTMVTVSS as well.
Result :: 21

Query :: Please do the same for humanized anti-PVRIG antibody 39H1 (antibody, human IgG4 S228P, F234A L235A, V domains shown) VH: EVQLVESGGGLVQPGGSLRLSCAASGFTFSTDCMGWFRQAPGKGLEGVAHIDSDGIPRYVESVKGRFTISRDNAKNSLYLQMNSLRAEDTAVYYCVVGFKFGDYCAPNDWGQGTMVTVSS as well.
Result :: 17.7
